# method: Plasmodium falciparum growth inhibition, primary screen, strain 3D7, DAPI fluorescence, 100 nL (AID 1184);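 note: parasites grown inside human red blood cells in medium with human serum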
# measurement parameters: P. falciparum 3D7 growth, 3 d, higher = more signal
Given measured z-score, output class 1 if it is greater than or equal to -0.6 and class 0 if not.

// below: answered compounds
[
  {
    "compound": "CCCNC(=O)OC[C@H]1O[C@H](CCON=C2c3cc(OC)ccc3O[C@H](c3cccc(OC)c3)[C@H]2O)C=C[C@@H]1Oc1ccc(OC)cc1",
    "category": "class 1"
  },
  {
    "compound": "C=CCOCC1CN2[C@@H](CC[C@@H](C)[C@@H]2c2ccc(Br)cc2)C(=O)O1 (some centres not stated)",
    "category": "class 1"
  },
  {
    "compound": "CC(=O)OC[C@H]1O[C@H](CCON=C(C)CCN2CCCc3nc(C)c(C)cc32)C=C[C@@H]1OC(C)=O",
    "category": "class 0"
  },
  {
    "compound": "CC(=O)OC[C@H]1O[C@H](C#CCCc2ccccc2)C=C[C@@H]1OC(C)=O",
    "category": "class 1"
  },
  {
    "compound": "CO[C@@H]1COC(=O)[C@@H]2CCCN2C(=O)[C@@H](C)COC(=O)CCC[C@H]1C",
    "category": "class 1"
  }
]

Switching to the query record.
Query block: Quick check, z-score >= -0.6? `CON=C1c2cc(OC)ccc2O[C@H](c2cccc(OC)c2)[C@H]1O`
Result block: class 1

----------
Listed here: items and their measured composite z-score.
# Tested on: Wnt5a (protein binding on small-molecule microarray)
# method: Wnt5a binders on small-molecule microarray, primary screen, biophysical, 635/667 nm fluorescence (AID 1142);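 note: fluorescence read at 667 nm with signal to noise per printed feature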
# measurement parameters: 635 nm fluorescence, higher = more signal

[
  {
    "compound": "CCCCOC(OCCCC)C(O)CSc1ccc2ccccc2c1 (stereo not given)",
    "meas value": 0.133
  }
]

Query block: Endpoint output: composite z-score of CCOC(=O)[C@H](CC(C)C)NC(=O)CCC1CC(OC(=O)NCCc2ccc(F)cc2)CC2(CCCC(COC(=O)NCc3cccc(C(F)(F)F)c3)O2)O1 (stereo not given in full) . Value?
Result block: 0.0465

Query block: What composite z-score value was documented for this compound, `CO[C@H]1COC(=O)[C@H](C)COC(=O)[C@H](C)NC(=O)CC=C[C@H]1C` ?
Result block: 0.108

Query block: Entry `COC(=O)CC=C[C@@H](C)[C@@H](C=NOC[C@@H](O)[C@H]1O[C@@H]2OC(C)(C)O[C@@H]2[C@H]1O)OC` has what composite z-score?
Result block: 0.183

Query block: Item under review: `CC(=O)OC[C@H]1O[C@H](CC=NO[C@@H](C)c2cc(-c3c(C)cc(C)cc3C)no2)C=C[C@@H]1OC(C)=O` . Reported composite z-score?
Result block: -0.184

Query block: Reported composite z-score, compound `CCN1C(C)=C(C(=O)OC)[C@@H](c2ccccc2)N2C(=O)[C@](O)(C(=O)OC)CC(C(C)=O)=C12` : ____
Result block: 0.24

----------
# measured target: Focal adhesion kinase 1 (Homo sapiens) (UniProt Q05397)
# Sequence (Q05397 whole entry, looked up): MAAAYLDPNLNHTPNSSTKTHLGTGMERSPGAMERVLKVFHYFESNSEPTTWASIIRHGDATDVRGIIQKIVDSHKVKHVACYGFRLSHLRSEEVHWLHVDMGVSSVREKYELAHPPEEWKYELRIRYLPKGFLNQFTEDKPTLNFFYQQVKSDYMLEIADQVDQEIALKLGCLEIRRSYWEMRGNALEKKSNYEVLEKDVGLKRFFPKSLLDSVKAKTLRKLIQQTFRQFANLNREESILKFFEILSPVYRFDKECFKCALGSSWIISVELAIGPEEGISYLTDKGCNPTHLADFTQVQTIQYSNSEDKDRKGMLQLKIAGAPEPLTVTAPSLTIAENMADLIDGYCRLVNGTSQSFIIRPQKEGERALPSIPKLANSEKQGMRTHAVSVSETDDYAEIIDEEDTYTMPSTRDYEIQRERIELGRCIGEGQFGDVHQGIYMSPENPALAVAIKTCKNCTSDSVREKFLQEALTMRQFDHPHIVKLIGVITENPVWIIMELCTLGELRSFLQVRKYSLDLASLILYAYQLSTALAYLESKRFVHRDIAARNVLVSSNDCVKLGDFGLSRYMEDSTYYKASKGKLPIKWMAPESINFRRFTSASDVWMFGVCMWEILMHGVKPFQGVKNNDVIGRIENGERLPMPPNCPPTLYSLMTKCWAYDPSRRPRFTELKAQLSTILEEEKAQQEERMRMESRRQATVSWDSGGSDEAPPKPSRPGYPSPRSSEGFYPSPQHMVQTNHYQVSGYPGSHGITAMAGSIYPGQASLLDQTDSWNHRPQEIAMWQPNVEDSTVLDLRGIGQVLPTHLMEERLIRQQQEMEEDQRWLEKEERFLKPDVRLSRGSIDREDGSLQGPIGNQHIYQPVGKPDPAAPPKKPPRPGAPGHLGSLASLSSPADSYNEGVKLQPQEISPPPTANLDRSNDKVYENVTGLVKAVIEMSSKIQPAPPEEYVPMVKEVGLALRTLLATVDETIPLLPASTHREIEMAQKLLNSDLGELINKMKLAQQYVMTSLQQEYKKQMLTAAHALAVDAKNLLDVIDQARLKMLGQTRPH
# method: small-molecule microarray binders of FAK, primary screen, biochemical, 635/667 nm fluorescence, BSA, DTT (AID 1130);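 note: composite of spot emission at 667 nm and signal to noise over triplicate slides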
# measurement parameters: PTK2 binding, 635 nm fluorescence, higher = more signal
Measured composite z-score of individual entries
Write the value as a bare number.

Example molecules with recorded composite z-score:
[
  {
    "molecule": "COc1cccc([C@H]2Oc3ccc(OC)cc3C(=NOCC[C@@H]3C=C[C@H](OC(C)=O)[C@@H](COC(C)=O)O3)[C@@H]2O)c1",
    "measured target": "Focal adhesion kinase 1 (Homo sapiens) (UniProt Q05397)",
    "composite z-score": 0.292
  },
  {
    "molecule": "CCN1C(=O)[C@H]2[C@H]3[C@H](O)[C@H](O)CC(=NO[C@H](C)c4cn([C@@H]5COC[C@H]5O)nn4)[C@@H]3CC[C@H]2C1=O",
    "measured target": "Focal adhesion kinase 1 (Homo sapiens) (UniProt Q05397)",
    "composite z-score": 0.339
  },
  {
    "molecule": "C[C@]12CCC3c4ccc(OCC5CO5)cc4CCC3C1CC[C@@H]2O (stereo partly drawn)",
    "measured target": "Focal adhesion kinase 1 (Homo sapiens) (UniProt Q05397)",
    "composite z-score": 0.492
  },
  {
    "molecule": "CC(=O)OC[C@H]1O[C@H](C#CCCc2ccccc2)C=C[C@@H]1OC(C)=O",
    "measured target": "Focal adhesion kinase 1 (Homo sapiens) (UniProt Q05397)",
    "composite z-score": -0.34
  }
]

Query block: Name the reported composite z-score value associated with the molecule `C[C@@H]1CC[C@H]2C(=O)O[C@@H](CN=[N+]=[N-])CN2[C@H]1c1ccc(Br)cc1`
Result block: 0.694

Query block: Field request: composite z-score | item: CO[C@@H](C(C)C)[C@@H](C)C1OC(=O)CC1O (stereo partly drawn)
Result block: 0.0539

Query block: Query (molecule): `CCCNC(=O)OC[C@H]1O[C@H](CCON=C2c3cc(OC)ccc3O[C@H](c3cccc(OC)c3)[C@H]2O)C=C[C@@H]1Oc1ccc(OC)cc1` ; field requested: composite z-score
Result block: 0.222

Query block: Please report the recorded composite z-score for CCOC(=O)[C@H](CC(C)C)NC(=O)CCC1CC(OC(=O)NCCc2ccc(F)cc2)CC2(CCCC(COC(=O)NCc3cccc(C(F)(F)F)c3)O2)O1 (stereo partly drawn) .
Result block: 0.155
